Values from PubChem BioAssay (Tox21)

Test: qHTS assay to identify small molecule agonists of H2AX (AID 1224845); further: on the % scale 0 is the no-effect control and ±100 the full control effect
Details: CHO-K1 phospho-H2AX Ser139 HTRF, 3 h; series mostly up to 154 µM
Excerpt: National Center for Advancing Translational Sciences [NCATS] NIH Chemical Genomics Center [NCGC] U.S. Environmental Protection Agency [EPA] National Institutes of Environmental Health Sciences [NIEHS] National Toxicology Program [NTP] U.S. Food and Drug Administration [FDA] HTRF phospho-H2AX (Ser139) assay (Cisbio Bioassays, US) enables the quantitative detection of the histone variant H2AX when phosphorylated on serine 139. […]
Records with an inconclusive call do not appear. Active and inactive are the calls of the source. The call rests on the fitted dose curve; in most records, active means well fitted activation curve with a large enough effect in the signal ratio in the repeat runs (not every such curve was filed as active); inconclusive means weak or mixed curves; inactive means flat fitted curve, though single readings scatter; the % refers to the signal ratio.
MEASURED METRIC: activation (H2AX phosphorylation)

• CSc1ccc(Oc2ccc(S(N)(=O)=O)cc2CN(C)C)cc1C = inactive
• CCC(=O)Oc1ccc(/C(CC)=C(\CC)c2ccc(OC(=O)CC)cc2)cc1 = inactive
• N#C/C(=C1/SC[C@@H](c2ccc(Cl)cc2Cl)S1)n1ccnc1 = inactive

* * *

Molecular target: Bile acid receptor (Homo sapiens)
Assay: qHTS assay to identify small molecule antagonists of the farnesoid-X-receptor (FXR) signaling pathway (AID 743217)
Settings: HEK293T FXR-UAS-bla, beta-lactamase ratio, CDCA-stimulated, 16 h; series mostly up to 62.6 µM
Excerpt: U.S. Tox21 Program National Center for Advancing Translational Sciences [NCATS] NIH Chemical Genomics Center [NCGC] U.S. Environmental Protection Agency [EPA] National Institutes of Environmental Health Sciences [NIEHS] National Toxicology Program [NTP] U.S. Food and Drug Administration [FDA] Tox21 Assay Overview: The farnesoid-X-receptor (FXR), a nuclear hormone receptor, is highly expressed in liver, intestine, kidney and adrenal cortex. […]
Records with an inconclusive call do not appear. Calls of active or inactive are those of the source. The call rests on the fitted dose curve; in most records, active means well fitted inhibition curve with a large enough effect in the signal ratio in the repeat runs (not every such curve was filed as active); inconclusive means weak or mixed curves, or effect the other way; inactive means no such curve, though single readings can be large or run the other way; the % refers to the signal ratio.
Parameter call: string, one of active, inactive

• NC(=O)Nc1ccc(Cl)c(Cl)c1 = inactive
• CCCCCCCCSCCO = inactive
• COC(=O)c1cc(S(N)(=O)=O)ccc1OC = inactive
• O=C(O)c1c(O)c(-c2ccccc2)nc2ccccc12 = active
• CN(C)CCOC1=Cc2ccccc2Sc2ccc(Cl)cc21 = inactive
• O=C(Nc1ccc([N+](=O)[O-])cc1)Nc1ccc([N+](=O)[O-])cc1 = inactive

Tell me the recorded outcome of this test for COC(=O)CC(=O)C(C)(C)C . inactive

For CCOC(=O)CC(=O)C(=O)OCC , what call appears in the results of this test? inactive

Assay outcome for CCCCCCOC(=O)C(C)C : what was it? inactive

For CCC(C(=O)OCCOCCN(CC)CC)c1ccccc1 (stereo not given) , what call appears in the results of this test? inactive

What outcome does the record of this test show for CC(=O)Oc1ccc(C(=C2CCCCC2)c2ccc(OC(C)=O)cc2)cc1 ? inactive

Entry O=C(O)c1cccc(O)c1 : call = ? inactive

What call does the record list for Cc1occc1C(=O)Nc1ccc(C(=O)N2CCC(F)(F)/C(=C\C(=O)N3CCC(N4CCCCC4)CC3)c3ccccc32)cc1 ? inactive

Check the results log: what was the call for CC(C)CCCCCCOC(=O)CCCCC(=O)OCCCCCCC(C)C ? inactive

I'd appreciate the recorded outcome for CO[C@H]1O[C@H](CO)[C@@H](O)[C@H](O)[C@H]1O from this test. inactive

* * *

Assay: qHTS assay to identify small molecule antagonists of the estrogen related receptor (ERR) signaling pathway from Tox21 library (AID 1224848); further: nearly all actives have a fitted effect of over 50% in size
Details: ERR reporter cell line, luciferase antagonist mode, 18 h; series mostly up to 92.4 µM
Records with an inconclusive call do not appear. Activity calls are given as the source filed them. The call rests on the fitted dose curve; in most records, active means well fitted inhibition curve with a large enough effect in the repeat runs; inconclusive means weak or mixed curves; inactive means no such curve, though single readings can be large or run the other way.
Answer with one of the outcomes TRUE (active), FALSE (inactive)

Some solved entries appear below for comparison.
• NCC1CCCC(CN)C1 (configuration not stated) = FALSE
• CCCCC(CC)CNCC(CC)CCCC (configuration not stated) = FALSE
• O=S1OCCO1 = FALSE
• N#C[C@@H]1C[C@@H]2C[C@@H]2N1C(=O)[C@@H](N)C12CC3CC(CC(O)(C3)C1)C2 = FALSE
• COCCOC(=O)C1=C(C)NC(C)=C(C(=O)OC/C=C/c2ccccc2)C1c1cccc([N+](=O)[O-])c1 (configuration not stated) = TRUE

In this assay, the call recorded for CCCCC1C(=O)N(c2ccccc2)N(c2ccc(O)cc2)C1=O (configuration not stated) was what? TRUE

Assay outcome for CC(C)CCCCCOC(=O)CCCCC(=O)OCCCCCC(C)C : what was it? FALSE

Which outcome was entered for the compound CCOC(=O)C(C)Oc1ccc(Oc2nc3ccc(Cl)cc3o2)cc1 (configuration not stated) in this test? FALSE

Please let me know the test result on file for CCCCC(CC)C(=O)OCCOCCOCCOCCOC(=O)C(CC)CCCC (configuration not stated) . TRUE

Test call for this compound, please: COC(=O)c1cc(Cl)ccc1NS(=O)(=O)C(F)(F)F FALSE

What was the test verdict on CNC(=O)N(c1ccccc1)c1ccccc1 ? FALSE

Please state the recorded outcome for this compound: NC(=O)N(O)[C@@H]1C=C[C@H](Oc2cccc(Oc3ccc(F)cc3)c2)C1 FALSE

* * *

Target: Progesterone receptor (Homo sapiens) (UniProt P06401)
Sequence (P06401 whole entry, looked up): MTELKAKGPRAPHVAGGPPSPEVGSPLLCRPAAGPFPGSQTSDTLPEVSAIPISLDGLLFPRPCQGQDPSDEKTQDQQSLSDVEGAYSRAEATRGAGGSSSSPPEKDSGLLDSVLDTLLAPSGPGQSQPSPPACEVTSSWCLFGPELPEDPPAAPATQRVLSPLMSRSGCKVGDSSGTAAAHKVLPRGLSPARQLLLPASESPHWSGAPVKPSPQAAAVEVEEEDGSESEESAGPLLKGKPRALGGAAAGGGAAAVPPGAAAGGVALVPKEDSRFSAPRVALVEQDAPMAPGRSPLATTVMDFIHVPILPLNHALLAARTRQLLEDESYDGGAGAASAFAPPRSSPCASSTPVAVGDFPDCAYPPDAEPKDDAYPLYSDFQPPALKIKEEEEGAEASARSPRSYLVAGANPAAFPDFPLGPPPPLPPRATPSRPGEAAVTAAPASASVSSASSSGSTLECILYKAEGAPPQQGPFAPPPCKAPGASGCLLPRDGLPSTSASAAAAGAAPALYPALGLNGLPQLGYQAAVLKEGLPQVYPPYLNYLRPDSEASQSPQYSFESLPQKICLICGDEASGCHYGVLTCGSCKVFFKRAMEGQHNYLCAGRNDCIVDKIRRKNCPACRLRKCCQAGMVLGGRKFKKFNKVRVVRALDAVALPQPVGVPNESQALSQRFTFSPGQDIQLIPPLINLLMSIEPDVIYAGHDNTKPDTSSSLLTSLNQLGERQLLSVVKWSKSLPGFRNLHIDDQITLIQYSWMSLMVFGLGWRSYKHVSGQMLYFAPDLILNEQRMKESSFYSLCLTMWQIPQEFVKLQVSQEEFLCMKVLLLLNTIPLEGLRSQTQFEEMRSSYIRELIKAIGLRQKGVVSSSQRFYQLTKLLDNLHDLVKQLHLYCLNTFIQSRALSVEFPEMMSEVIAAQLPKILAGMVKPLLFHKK
Assay: qHTS assay to identify small molecule agonists of the progesterone receptor (PR) signaling pathway (AID 1346784); further: on the % scale 0 is the no-effect control and ±100 the full control effect; nearly all actives have a fitted effect of over 30% in size
Conditions: PR-UAS-bla HEK293T, beta-lactamase FRET ratio, 16 h; series mostly up to 92.4 µM
Results filed as inconclusive are left out. Calls of active or inactive are those of the source. The call rests on the fitted dose curve.
MEASURED METRIC: outcome

Below, each entry is followed by its recorded outcome result.
• C=CCNc1nc(NCC=C)nc(N2CCN(C(c3ccc(F)cc3)c3ccc(F)cc3)CC2)n1 = inactive
• O=C(O)C(Cc1cc(I)c(O)c(I)c1)c1ccccc1 (configuration not stated) = inactive
• CCc1nn(CCCN2CCN(c3cccc(Cl)c3)CC2)c(=O)n1CCOc1ccccc1 = inactive
• CCOC(=O)c1ccccc1C = inactive
• CCC(C)(C)C1CCC(O)CC1 (configuration not stated) = inactive

Provide the reported outcome of each entry below, same order.
1. Cc1occc1C(=O)Nc1ccc(C(=O)N2CCC(F)(F)/C(=C\C(=O)N3CCC(N4CCCCC4)CC3)c3ccccc32)cc1
2. CCCCC(CC)COC(=O)COc1ccc(Cl)cc1C (configuration not stated)
3. CC(C)(CCl)c1ccccc1
4. Cc1nc2ccccc2s1

1. inactive
2. inactive
3. inactive
4. inactive

Look up outcome for the entries below, preserving their order.
1. Cc1ccc(S)cc1
2. Oc1cc(O)c(Cl)cc1Cl
3. CN(C)C(=O)Nc1ccc(Oc2ccc(Cl)cc2)cc1
4. CCCCC(CC)CNCC(CC)CCCC (configuration not stated)
5. CCCc1c(OCCCOc2ccc(OCC(=O)O)cc2)ccc(C(C)=O)c1O
6. C[N+](C)(C)CCOC(N)=O
7. O=C(CCCCCCC(=O)Nc1ccccc1)NO
8. CC1=CC(O)CC(C)(C)C1 (configuration not stated)

inactive
inactive
inactive
inactive
inactive
inactive
inactive
inactive

* * *

Assay: qHTS RealTime-Glo MT Cell Viability Assay in HEK293 cells - 16 hour (AID 1224872); further: top concentration of the series differs between compounds; on the % scale 0 is the no-effect control and ±100 the full control effect; nearly all actives have a fitted effect of over 50% in size
Conditions: RealTime-Glo luminescence; series mostly up to 76.8 µM
Inconclusive results are not listed. Activity calls are given as the source filed them. Calls come from the whole dose curve; as a rule, active = well fitted cell-killing curve with a large enough effect in the repeat runs; inconclusive = weak or mixed curves, or effect the other way; inactive = flat fitted curve, though single readings scatter.
MEASURED METRIC: outcome

Illustrative cases are given below, each with its answer.
- CCCCCCOC(=O)C(C)C: inactive
- C=CC(C)(O)CCCC(C)CCCC(C)CCCC(C)C (stereo unspecified): inactive
- CC(=O)N(c1onc(C)c1C)S(=O)(=O)c1ccc(N)cc1: inactive
- Cc1cnc(C)c(C)n1: inactive
- CN(C(=O)C(Cl)Cl)c1ccc(OC(=O)c2ccco2)cc1: inactive

Give outcome for all compounds that follow.
1. CC#N
2. CC(C)(CCl)c1ccccc1

1. inactive
2. inactive

* * *

Assay: qHTS assay to identify small molecule agonists of the estrogen receptor beta (ER-beta) signaling pathway - cell viability counter screen (AID 1259380); further: nearly all actives have a fitted effect of over 30% in size
Settings: ER-beta-bla HEK293T viability, CellTiter-Glo luminescence, 16 h; series mostly up to 92.4 µM
Records with an inconclusive call do not appear. The source made the active and inactive calls. The call rests on the fitted dose curve; in most records, active means well fitted cell-killing curve with a large enough effect in the repeat runs; inconclusive means weak or mixed curves, or effect the other way; inactive means flat fitted curve, though single readings scatter.
Lab note: assign the record to one of 1 (yes) (active), 0 (no) (inactive)

* CCOC(=O)CC(=O)C(=O)OCC | 1 (yes)
* O=C(/C=C/c1ccccc1)OCCCc1ccccc1 | 0 (no)
* COCCOC(=O)C1=C(C)NC(C)=C(C(=O)OC/C=C/c2ccccc2)C1c1cccc([N+](=O)[O-])c1 (stereo unspecified) | 0 (no)
* CC1=C(C=O)C(C)(C)CCC1 | 0 (no)
* CCCCCCCCCOC(C)=O | 0 (no)

Tell me the assay call for CO[C@H]1O[C@H](CO)[C@@H](O)[C@H](O)[C@H]1O please. 0 (no)
